- Tested on: MCF-7
- Assay overview: Human cancer cell line inhibitory activity, Breast MCF-7
- Assay type: cell-based
Would you mind classing the entries by GI50 Breast MCF-7? Ranges: low interval: < 0.3 µg/mL; middle interval: ≥ 0.3 µg/mL and < 0.4 µg/mL; high interval: ≥ 0.4 µg/mL

## Input Which category fits this record: O=C1N[C@H]2[C@H](OP(=O)(O)O)[C@H](O)[C@@H](O)[C@H](O)[C@@H]2c2cc3c(c(O)c21)OCO3.c1c[nH]cn1 [Compound 4j, Imidazolium Pancratistatin 4-O-Phosphate]
## Output middle interval

## Input Next: O=C1N[C@H]2[C@H](O)[C@H](O)[C@@H](O)[C@H](O)[C@@H]2c2cc3c(c(OP(=O)([O-])[O-])c21)OCO3.[Na+].[Na+] [Compound 1b, sodium pancratistatin 7-O-phosphate, reference compound]
## Output low interval

## Input Next: O=C1N[C@H]2[C@@H]3OP(=O)([O-])O[C@@H]3[C@@H](O)[C@H](O)[C@@H]2c2cc3c(c(O)c21)OCO3.[Na+] [Compound 5a]
## Output high interval

## Input Next: O=C1N[C@@H]2C(=C[C@H](O)[C@@H](O)[C@H]2O)c2cc3c(c(O)c21)OCO3 [Compound 2a, narciclasine, reference compound]
## Output low interval

## Input Next: C1CNCCN1.O=C1N[C@H]2[C@H](OP(=O)(O)O)[C@H](O)[C@@H](O)[C@H](O)[C@@H]2c2cc3c(c(O)c21)OCO3 [Compound 4h]
## Output middle interval

## Input Next: O=C1N[C@H]2[C@H](OP(=O)([O-])[O-])[C@H](O)[C@@H](O)[C@H](O)[C@@H]2c2cc3c(c(O)c21)OCO3.[Mg+2] [Compound 4e, Magnesium Pancratistatin 4-O-Phosphate]
## Output high interval

## Input Next: O=C1N[C@H]2[C@H](OP(=O)([O-])[O-])[C@H](O)[C@@H](O)[C@H](O)[C@@H]2c2cc3c(c(O)c21)OCO3.[K+].[K+] [Compound 4d, Potassium Pancratistatin 4-O-phosphate]
## Output high interval

## Input Next: O=C1N[C@H]2[C@H](OP(=O)(O)O)[C@H](O)[C@@H](O)[C@H](O)[C@@H]2c2cc3c(c(O)c21)OCO3 [Compound 4b, Pancratistatin 4-O-phosphoric Acid]
## Output high interval

## Input Next: C=C[C@H]1CN2CC[C@H]1C[C@@H]2[C@@H](O)c1ccnc2ccc(OC)cc12.O=C1N[C@H]2[C@H](OP(=O)(O)O)[C@H](O)[C@@H](O)[C@H](O)[C@@H]2c2cc3c(c(O)c21)OCO3 [Compound 4l, Quinidium Pancratistatin 4-O-Phosphate]
## Output middle interval

## Input Next: O=C1N[C@H]2[C@H](OP(=O)([O-])[O-])[C@H](O)[C@@H](O)[C@H](O)[C@@H]2c2cc3c(c(O)c21)OCO3.[Zn+2] [Compound 4g, Zinc Pancratistatin 4-O-Phosphate]
## Output high interval

## Input Next: O=C1N[C@H]2[C@H](OP(=O)([O-])[O-])[C@H](O)[C@@H](O)[C@H](O)[C@@H]2c2cc3c(c(O)c21)OCO3.[Ca+2] [Compound 4f, Calcium Pancratistatin 4-O-Phosphate]
## Output middle interval

## Input Next: O=C1N[C@H]2[C@H](OP(=O)([O-])[O-])[C@H](O)[C@@H](O)[C@H](O)[C@@H]2c2cc3c(c(O)c21)OCO3.[Na+].[Na+] [Compound 4a, Sodium Pancratistatin 4-O-phosphate]
## Output low interval

## Input Next: C=C[C@H]1CN2CC[C@H]1C[C@H]2[C@H](O)c1ccnc2ccc(OC)cc12.O=C1N[C@H]2[C@H](OP(=O)(O)O)[C@H](O)[C@@H](O)[C@H](O)[C@@H]2c2cc3c(c(O)c21)OCO3 [Compound 4k, Quinium Pancratistatin 4-O-Phosphate]
## Output middle interval

* * *

- Test system: BXPC-3
- Assay overview: Human cancer cell line inhibitory activity, Pancreas-a BXPC-3
- Format: cell-based
Provide the reported GI50 Pancreas-a BXPC-3 of each item.
Response body: numeric value in mg/L, unit text excluded.

## Input GET /values?readout=GI50 Pancreas-a BXPC-3&item= O=C1N[C@H]2[C@H](OP(=O)(O)O)[C@H](O)[C@@H](O)[C@H](O)[C@@H]2c2cc3c(c(O)c21)OCO3 [Compound 4b, Pancratistatin 4-O-phosphoric Acid]
## Output 0.36

## Input Next: C1CNCCN1.O=C1N[C@H]2[C@H](OP(=O)(O)O)[C@H](O)[C@@H](O)[C@H](O)[C@@H]2c2cc3c(c(O)c21)OCO3 [Compound 4h]
## Output 0.31

## Input Next: C=C[C@H]1CN2CC[C@H]1C[C@@H]2[C@@H](O)c1ccnc2ccc(OC)cc12.O=C1N[C@H]2[C@H](OP(=O)(O)O)[C@H](O)[C@@H](O)[C@H](O)[C@@H]2c2cc3c(c(O)c21)OCO3 [Compound 4l, Quinidium Pancratistatin 4-O-Phosphate]
## Output 0.34

## Input Next: O=C1N[C@H]2[C@H](OP(=O)([O-])[O-])[C@H](O)[C@@H](O)[C@H](O)[C@@H]2c2cc3c(c(O)c21)OCO3.[Ca+2] [Compound 4f, Calcium Pancratistatin 4-O-Phosphate]
## Output 0.25

## Input Next: O=C1N[C@H]2[C@H](OP(=O)([O-])[O-])[C@H](O)[C@@H](O)[C@H](O)[C@@H]2c2cc3c(c(O)c21)OCO3.[Mg+2] [Compound 4e, Magnesium Pancratistatin 4-O-Phosphate]
## Output 0.40

## Input Next: O=C1N[C@H]2[C@H](O)[C@H](O)[C@@H](O)[C@H](O)[C@@H]2c2cc3c(c(OP(=O)([O-])[O-])c21)OCO3.[Na+].[Na+] [Compound 1b, sodium pancratistatin 7-O-phosphate, reference compound]
## Output 0.20

## Input Next: O=C1N[C@H]2[C@H](OP(=O)(O)O)[C@H](O)[C@@H](O)[C@H](O)[C@@H]2c2cc3c(c(O)c21)OCO3.c1c[nH]cn1 [Compound 4j, Imidazolium Pancratistatin 4-O-Phosphate]
## Output 0.25

## Input Next: O=C1N[C@H]2[C@H](OP(=O)([O-])[O-])[C@H](O)[C@@H](O)[C@H](O)[C@@H]2c2cc3c(c(O)c21)OCO3.[Na+].[Na+] [Compound 4a, Sodium Pancratistatin 4-O-phosphate]
## Output 0.18

## Input Next: O=C1N[C@H]2[C@H](OP(=O)([O-])[O-])[C@H](O)[C@@H](O)[C@H](O)[C@@H]2c2cc3c(c(O)c21)OCO3.[K+].[K+] [Compound 4d, Potassium Pancratistatin 4-O-phosphate]
## Output 0.45

* * *

Provide the reported GI50 Lung-NSC NCI-H460 of each item.
- System: NCI-H460
- Assay overview: Human cancer cell line inhibitory activity, Lung-NSC NCI-H460
- Assay type: cell-based
Answer shape: numeric part, then the unit.

## Input GET /values?readout=GI50 Lung-NSC NCI-H460&item= O=C1N[C@H]2[C@H](O)[C@H](O)[C@@H](O)[C@H](O)[C@@H]2c2cc3c(c(OP(=O)([O-])[O-])c21)OCO3.[Na+].[Na+] [Compound 1b, sodium pancratistatin 7-O-phosphate, reference compound]
## Output 0.19 µg/mL

## Input Next: C=C[C@H]1CN2CC[C@H]1C[C@@H]2[C@@H](O)c1ccnc2ccc(OC)cc12.O=C1N[C@H]2[C@H](OP(=O)(O)O)[C@H](O)[C@@H](O)[C@H](O)[C@@H]2c2cc3c(c(O)c21)OCO3 [Compound 4l, Quinidium Pancratistatin 4-O-Phosphate]
## Output 0.36 µg/mL

## Input Next: O=C1N[C@H]2[C@H](OP(=O)(O)O)[C@H](O)[C@@H](O)[C@H](O)[C@@H]2c2cc3c(c(O)c21)OCO3.c1c[nH]cn1 [Compound 4j, Imidazolium Pancratistatin 4-O-Phosphate]
## Output 0.25 µg/mL

## Input Next: O=C1N[C@H]2[C@H](OP(=O)([O-])O)[C@H](O)[C@@H](O)[C@H](O)[C@@H]2c2cc3c(c(O)c21)OCO3.[Li+] [Compound 4c, Lithium Pancratistatin 4-O-phosphate]
## Output 0.35 µg/mL

* * *

- System: BXPC-3
- Assay overview: Human cancer cell line inhibitory activity, Pancreas-a BXPC-3
- Type: cell-based
// returns no (0) unless GI50 Pancreas-a BXPC-3 is strictly below 0.3 µg/mL, in which case yes (1)

## Input Please let me know if O=C1N[C@H]2[C@H](OP(=O)([O-])[O-])[C@H](O)[C@@H](O)[C@H](O)[C@@H]2c2cc3c(c(O)c21)OCO3.[Zn+2] [Compound 4g, Zinc Pancratistatin 4-O-Phosphate] shows GI50 Pancreas-a BXPC-3 below 0.3 µg/mL.
## Output yes (1)

## Input Next: O=C1N[C@@H]2C(=C[C@H](O)[C@@H](O)[C@H]2O)c2cc3c(c(O)c21)OCO3 [Compound 2a, narciclasine, reference compound]
## Output yes (1)

## Input Next: C=C[C@H]1CN2CC[C@H]1C[C@H]2[C@H](O)c1ccnc2ccc(OC)cc12.O=C1N[C@H]2[C@H](OP(=O)(O)O)[C@H](O)[C@@H](O)[C@H](O)[C@@H]2c2cc3c(c(O)c21)OCO3 [Compound 4k, Quinium Pancratistatin 4-O-Phosphate]
## Output yes (1)

## Input Next: O=C1N[C@H]2[C@@H]3OP(=O)([O-])O[C@@H]3[C@@H](O)[C@H](O)[C@@H]2c2cc3c(c(O)c21)OCO3.[Na+] [Compound 5a]
## Output no (0)

## Input Next: C1COCCN1.O=C1N[C@H]2[C@H](OP(=O)(O)O)[C@H](O)[C@@H](O)[C@H](O)[C@@H]2c2cc3c(c(O)c21)OCO3 [Compound 4i]
## Output yes (1)
